Molecular target: purified full-length recombinant human ERβ (Homo sapiens, UniProt Q92731)
Sequence (Q92731 whole entry): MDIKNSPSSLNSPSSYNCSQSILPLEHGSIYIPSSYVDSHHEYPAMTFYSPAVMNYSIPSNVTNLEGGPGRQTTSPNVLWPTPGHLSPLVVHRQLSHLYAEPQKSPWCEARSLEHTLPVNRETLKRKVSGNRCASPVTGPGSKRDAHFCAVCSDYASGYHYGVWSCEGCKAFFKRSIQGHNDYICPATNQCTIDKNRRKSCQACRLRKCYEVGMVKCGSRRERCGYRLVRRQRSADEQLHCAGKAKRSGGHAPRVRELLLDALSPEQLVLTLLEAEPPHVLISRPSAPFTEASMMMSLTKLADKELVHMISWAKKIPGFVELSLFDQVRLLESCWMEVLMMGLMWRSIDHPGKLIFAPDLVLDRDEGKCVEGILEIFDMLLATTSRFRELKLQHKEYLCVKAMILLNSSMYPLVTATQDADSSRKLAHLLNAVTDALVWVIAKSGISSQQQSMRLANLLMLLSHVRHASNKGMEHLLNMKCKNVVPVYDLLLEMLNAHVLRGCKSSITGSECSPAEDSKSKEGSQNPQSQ
Test: Estrogen receptor β competitive radiometric binding assay ([3H]-E2)
Details: ratio of the IC50 for ERα to the IC50 for ERβ
QUANTITY KIND: R (IC50s) αβ

Some solved entries appear below for comparison.
• N#CC(Cc1ccc(O)c(F)c1)c1noc2cc(O)ccc12 (stereo not shown) = 9.7
• Oc1ccc2c(C3CCCCCC3)noc2c1 = 3.7
• N#CC(Cc1ccc(O)c(O)c1)c1noc2cc(O)ccc12 (stereo not shown) = 14.1
• Oc1ccc2c(C3CCCCC3)n[nH]c2c1 = 15.6

(1) N#CC(Cc1ccc(F)cc1)c1noc2cc(O)ccc12 (stereo not shown)
(2) N#CC(Cc1ccc(O)cc1)c1noc2cc(O)ccc12 (stereo not shown)
(3) Oc1ccc2c(C3CCCC3)n[nH]c2c1
Inquiry: Sort entries by R (IC50s) αβ from minimum to maximum value. // rank by listing labels in the order requested
Reply text: 2, 1, 3
(2: 9.0, 1: 18.7, 3: 31.9)

Reference source for all entries: patent US7977364B2
